experiment: In vivo pharmacokinetic study in rats, intravenous
condition_set: rat, in vivo, 2 mg/kg
observed_property: AUC(0-t) (ng·h/mL)
// units = ng·h/mL; emit number, no label

Req: Could you share which AUC(0-t) value was measured for C[C@@H](OC[C@@]1(c2ccccc2)CC[C@]2(CCC(=O)N2)CN1C(=O)OCSSCCS(=O)(=O)O)c1cc(C(F)(F)F)cc(C(F)(F)F)c1 ?
Resp: 9.42

###

experiment: In vivo pharmacokinetic study in rats, intravenous
condition_set: rat, whole blood, 2 mg/kg
Exercise: state measured Cmax for each of the compounds provided.
Could you give me the number in µg/mL? Just the number is fine.

Req: Using the record for C[C@@H](OC[C@@]1(c2ccccc2)CC[C@]2(CCC(=O)N2)CN1C(=O)OCSSCCCOS(=O)(=O)O)c1cc(C(F)(F)F)cc(C(F)(F)F)c1 , report its Cmax.
Resp: 0.116

Req: Can you look up the measured Cmax of C[C@@H](OC[C@@]1(c2ccccc2)CC[C@]2(CCC(=O)N2)CN1C(=O)OCOP(=O)(O)O)c1cc(C(F)(F)F)cc(C(F)(F)F)c1 [Compound of formula (I), reference compound] for me?
Resp: 0.328

###

experiment: In vivo pharmacokinetic study in rats, intravenous
condition_set: rat, in vivo, 2 mg/kg
observed_property: Cmax (ng/mL)
The response must be a number in ng/mL with no trailing unit.

Req: So what's the measured Cmax for this one? C[C@@H](OC[C@@]1(c2ccccc2)CC[C@]2(CCC(=O)N2)CN1C(=O)OCSSCCS(=O)(=O)O)c1cc(C(F)(F)F)cc(C(F)(F)F)c1
Resp: 61.2

###

experiment: Pharmacokinetic study in crab-eating monkeys, intravenous infusion
condition_set: monkey, whole blood, 2 mg/kg
observed_property: AUC(0-t) (ng·h/mL)
Entry rule: numbers only, all in ng·h/mL.

Req: Report AUC(0-t) for C[C@@H](OC[C@@]1(c2ccccc2)CC[C@]2(CCC(=O)N2)CN1C(=O)OCOP(=O)(O)O)c1cc(C(F)(F)F)cc(C(F)(F)F)c1 [Compound of formula (I), reference compound] please.
Resp: 688

###

experiment: In vivo pharmacokinetic study in rats, intravenous
condition_set: rat, whole blood, 2 mg/kg
Answer each item with its documented AUC(0-t).
Remember to quote the unit after the number.

Req: Consider the compound C[C@@H](OC[C@@]1(c2ccccc2)CC[C@]2(CCC(=O)N2)CN1C(=O)OCOP(=O)(O)O)c1cc(C(F)(F)F)cc(C(F)(F)F)c1 [Compound of formula (I), reference compound] and give its measured AUC(0-t).
Resp: 82.6 ng·h/mL

Req: # input compound: C[C@@H](OC[C@@]1(c2ccccc2)CC[C@]2(CCC(=O)N2)CN1C(=O)OCSSCCCOS(=O)(=O)O)c1cc(C(F)(F)F)cc(C(F)(F)F)c1 ; wanted: its AUC(0-t)
Resp: 19.9 ng·h/mL

###

experiment: In vivo pharmacokinetic study in rats, intravenous
condition_set: rat, in vivo, 2 mg/kg
observed_property: MRT inf
Number plus unit, in that order.

Req: Requested read-out: MRT inf. Entry: C[C@@H](OC[C@@]1(c2ccccc2)CC[C@]2(CCC(=O)N2)CN1C(=O)OCSSCCS(=O)(=O)O)c1cc(C(F)(F)F)cc(C(F)(F)F)c1 [Example 42]
Resp: 5.45 min

These data points were gathered from patent EP4741406A1.
